Recorded Kd values for a group of molecules are listed next.
- method description: SPR (Biacore) Protein A mAb capture, Compound A injected
- condition info: 37° C., binding to Compound A, apparent affinity, for rank ordering only, read-out: KD
measure name: Kd (nM)

molecule | measure name | modifier sign | value reported
26D5-75602-348-F04-mAb: human IgG1f/kappa mAb; VH SEQ ID NO: 58, VL SEQ ID NO: 88 (antibody, V domains shown) VH: EVQLVESGGGLIQPGGSLRLSCAASGFTVSSNQFSWVRQAPGKGLEWVSYFYPGGRTYYADSVKGRFTISRDNSKNTLYLQMNSLRAEDTAVYYCAKAGFGGGDYWGQGTLVTVSS VL: DIQMTQSPSSVSASVGDRVTITCRASQGISSNLAWYQQKPGKAPKLLIYAASSLQSGVPSRFSGSGSGTDFTLTISSLQPEDFATYYCQQANSFPLTFGGGTKVEIK | Kd | < | 0.05
26D5-296-F08-mAb: human IgG1f/kappa mAb; VH SEQ ID NO: 73, VL SEQ ID NO: 95 (antibody, V domains shown) VH: EVQLVESGGGLIQPGGSLRLSCAASGFTVSSNYMSWVRQAPGKGLEWVSFIYPGGETYYADSVKGRFTISRDNSKNTLYLQMNSLRAEDTAVYYCARGGFGGGDYWGQGTLVTVSS VL: DIQMTQSPSSVSASVGDRVTITCRASQYIESNLAWYQQKPGKAPKLLIYAASSLQSGVPSRFSGSGSGTDFTLTISSLQPEDFATYYCQQANSFPLTFGGGTKVEIK | Kd | = | 0.68
